Assignment: determine reported P53 for the given sequences.
# Test system: human rhabdosarcoma cells
# measurement.protocol: p53 quantification, same procedure, rhabdosarcoma cells
# Type: cell-based
# Parameters: unit not given here
# condition.info: Table 9, in association with SiRNA Integrin alpha 3+RGDSPC+SiRNA Integrin beta 1+SiRNA Syndecan 1 (SEQ ID NO: 31, 32, 164 to 187)
Answers are plain numbers.

Check out these entries, answers already filled in.
CAAPASSSVPARLSPISILYIDAANNVVYKQYEDMVVE (Non-cyclic GFR-binding peptide) [SEQ ID NO: 182]	41
CGIPEPSSVPEKMSSLSILFFDENKNVVLKVYPNM (Non-cyclic GFR-binding peptide) [SEQ ID NO: 179]	40

Now take the following sequence into account.
Give the reported P53 for this sequence. GTPGPKASSVPTELSPISTLYKDENEKVVLKYHYDMVVEGSGSR (Non-cyclic GFR-binding peptide) [SEQ ID NO: 167] 41
